# System: HCC1569
# test_name: H1.0 immunofluorescence intensity relative to DMSO (% of DMSO); higher = stronger H1.0 induction, active = 140 or more;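 also: TDF is a line of transformed human dermal fibroblasts of mesenchymal origin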
# measurement_parameters: concentration: 10 µM; 24 h
endpoint: H1.0 immunofluorescence intensity
Reply: number alone, nothing else.

Below: 8 compounds and their reported H1.0 immunofluorescence intensity.
- compound: "O=C(O)CCCC=CCC1C(O)CC(O)C1C=CC(O)COc1cccc(C(F)(F)F)c1 (centres undefined) [Fluprostenol]"
  H1.0 immunofluorescence intensity: 97.4
- compound: "O=C1c2ccccc2-c2nc3nnnn3nc21 [PDK1/Akt/Flt Dual Pathway Inhibitor]"
  H1.0 immunofluorescence intensity: 56.9
- compound: "CCCn1c(=O)c2[nH]c(-c3ccc(OCC(=O)Nc4ccc(C#N)cc4)cc3)nc2n(CCC)c1=O"
  H1.0 immunofluorescence intensity: 102
- compound: "Cc1ccccc1-n1c(Cn2nc(-c3cccc(O)c3)c3c(N)ncnc32)nc2cccc(C)c2c1=O"
  H1.0 immunofluorescence intensity: 103
- compound: "CC1(C)CC1C(=O)NC(=CCCCCSCC(N)C(=O)O)C(=O)O (centres undefined) [Cilastatin]"
  H1.0 immunofluorescence intensity: 119
- compound: "CN1CCc2cc(Cl)c(O)cc2C(c2ccccc2)C1.Cl (centres undefined)"
  H1.0 immunofluorescence intensity: 94.6
- compound: "Cc1cnc(C(=O)O)c[n+]1[O-] [Acipimox]"
  H1.0 immunofluorescence intensity: 104
- compound: "NC(Cn1ccc(=O)c(O)c1)C(=O)O [L-Mimosine]"
  H1.0 immunofluorescence intensity: 102

Reported H1.0 immunofluorescence intensity ( NCC1CCC(C(=O)O)CC1 (centres undefined) [Tranexamic acid] ) = 111

Reported H1.0 immunofluorescence intensity ( COc1ccc(S(=O)(=O)Nc2cc(Cl)cc(Cl)c2OC)cc1N1CCNCC1.Cl ) = 99.9

Reported H1.0 immunofluorescence intensity ( C[n+]1cc2c3c(ccc2c2ccc4cc5c(cc4c21)OCO5)OCO3 [Sanguinarine] ) = 114

Reported H1.0 immunofluorescence intensity ( CCC1(O)CC2CN(CCc3c([nH]c4ccccc34)C(C(=O)OC)(c3cc4c(cc3OC)N(C)C3C(O)(C(N)=O)C(O)C5(CC)C=CCN6CCC43C65)C2)C1.O=S(=O)(O)O (centres undefined) [Vindesine sulfate] ) = 179

Reported H1.0 immunofluorescence intensity ( COc1ccccc1N1CCN(CCCCNC(=O)c2ccc3ccccc3c2)CC1 ) = 97.4

---

# System: TDF
# test_name: H1.0 immunofluorescence intensity relative to DMSO (% of DMSO); higher = stronger H1.0 induction, active = 120 or more
# measurement_parameters: concentration: 10 µM; 24 h
Answer -1 if H1.0 immunofluorescence intensity is under 100, and 1 if it is 100 or more.

// below: answered compounds
- compound: "COc1cc(C=CC(=O)CC(=O)C=Cc2ccc(O)c(OC)c2)ccc1O"
  tested_target: "TDF"
  answer_label: 1
- compound: "CC(C)NCC(O)COc1cccc2ccccc12.Cl [(S)-Propranolol hydrochloride]"
  tested_target: "TDF"
  answer_label: -1
- compound: "CCCCCCCCC=CCCCCCCCCCCCCC(=O)O [14(E)-Tricosenoic acid]"
  tested_target: "TDF"
  answer_label: -1

Next:
Query :: API: above_or_equal(metric=H1.0 immunofluorescence intensity, cutoff=100) for item C=CCSC[C@H](N)C(=O)O
Result :: -1
